Target: T1, hTSLPR-ECTO-His (human)
T1 chain: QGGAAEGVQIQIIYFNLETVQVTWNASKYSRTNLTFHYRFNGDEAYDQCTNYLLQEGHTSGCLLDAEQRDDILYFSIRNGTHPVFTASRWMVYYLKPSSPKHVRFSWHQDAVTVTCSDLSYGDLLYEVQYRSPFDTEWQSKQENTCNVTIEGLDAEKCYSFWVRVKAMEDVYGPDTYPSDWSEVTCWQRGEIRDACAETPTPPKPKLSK
Test: ELISA, plate coated with TSLPR 50 ng/well, HRP goat anti-mouse detection
measure.name: EC50 (ng/mL)
Number in ng/mL, nothing else.

State the recorded EC50 for this entry: mouse antibody 54C11 (antibody, mouse IgG2a, V domains shown, Mouse IgG2a/kappa from hybridoma; also called m54C11; LB55.54C11.3G11) VH: QVQLQQSGPEVVRPGVSVKISCKGSGFTFTDYAIHWVRQSHAKSLEWIGIIRPSNGNTNCDQKFKDKATMTVDKSSSTAYLDLARLTSEDSAIYYCSRSRVWGGSLAYWGQGTLVTVSA VL: DIVMTQSQKFMSTSVGDRVSVTCKASQNVGTNIAWYQQKPGQSPEALIYSASYRYSGVPDRFTGSGSGTDFTLTITNVQSEDLAEYFCQQYKSYPWTFGGGTKLEIKR
5.9
